Let's look at some compounds and their measured IC50.
Target: PI3Kα (wild-type), P110/P85α (Homo sapiens, UniProt P42336)
Sequence (P42336 whole entry): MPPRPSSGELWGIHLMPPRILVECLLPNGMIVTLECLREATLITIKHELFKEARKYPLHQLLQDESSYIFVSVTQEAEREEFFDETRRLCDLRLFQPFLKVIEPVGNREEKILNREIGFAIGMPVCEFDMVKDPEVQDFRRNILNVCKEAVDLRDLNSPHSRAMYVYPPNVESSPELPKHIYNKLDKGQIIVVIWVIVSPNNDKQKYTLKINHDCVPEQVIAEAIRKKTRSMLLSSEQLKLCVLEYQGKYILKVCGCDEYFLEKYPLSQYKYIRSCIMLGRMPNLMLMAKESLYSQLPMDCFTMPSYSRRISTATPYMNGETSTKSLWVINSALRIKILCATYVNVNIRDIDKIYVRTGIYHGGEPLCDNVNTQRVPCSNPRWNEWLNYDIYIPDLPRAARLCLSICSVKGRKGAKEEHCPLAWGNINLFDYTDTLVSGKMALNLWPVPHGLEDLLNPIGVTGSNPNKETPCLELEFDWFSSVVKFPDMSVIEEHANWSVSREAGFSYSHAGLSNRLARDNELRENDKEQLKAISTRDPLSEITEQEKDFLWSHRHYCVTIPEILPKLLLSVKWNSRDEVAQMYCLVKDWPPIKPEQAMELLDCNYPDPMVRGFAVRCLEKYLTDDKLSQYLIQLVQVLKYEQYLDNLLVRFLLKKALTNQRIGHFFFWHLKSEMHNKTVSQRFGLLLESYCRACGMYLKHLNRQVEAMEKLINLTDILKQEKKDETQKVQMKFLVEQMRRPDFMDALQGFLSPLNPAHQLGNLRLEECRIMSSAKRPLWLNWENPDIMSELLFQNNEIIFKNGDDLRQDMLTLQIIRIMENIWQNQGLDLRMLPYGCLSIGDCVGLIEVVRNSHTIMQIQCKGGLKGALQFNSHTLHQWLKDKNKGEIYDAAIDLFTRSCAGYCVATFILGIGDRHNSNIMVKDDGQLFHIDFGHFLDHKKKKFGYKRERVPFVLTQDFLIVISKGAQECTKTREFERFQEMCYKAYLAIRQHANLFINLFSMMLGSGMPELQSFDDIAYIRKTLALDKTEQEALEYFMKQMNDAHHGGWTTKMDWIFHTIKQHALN
Sequence (P27986 whole entry partner): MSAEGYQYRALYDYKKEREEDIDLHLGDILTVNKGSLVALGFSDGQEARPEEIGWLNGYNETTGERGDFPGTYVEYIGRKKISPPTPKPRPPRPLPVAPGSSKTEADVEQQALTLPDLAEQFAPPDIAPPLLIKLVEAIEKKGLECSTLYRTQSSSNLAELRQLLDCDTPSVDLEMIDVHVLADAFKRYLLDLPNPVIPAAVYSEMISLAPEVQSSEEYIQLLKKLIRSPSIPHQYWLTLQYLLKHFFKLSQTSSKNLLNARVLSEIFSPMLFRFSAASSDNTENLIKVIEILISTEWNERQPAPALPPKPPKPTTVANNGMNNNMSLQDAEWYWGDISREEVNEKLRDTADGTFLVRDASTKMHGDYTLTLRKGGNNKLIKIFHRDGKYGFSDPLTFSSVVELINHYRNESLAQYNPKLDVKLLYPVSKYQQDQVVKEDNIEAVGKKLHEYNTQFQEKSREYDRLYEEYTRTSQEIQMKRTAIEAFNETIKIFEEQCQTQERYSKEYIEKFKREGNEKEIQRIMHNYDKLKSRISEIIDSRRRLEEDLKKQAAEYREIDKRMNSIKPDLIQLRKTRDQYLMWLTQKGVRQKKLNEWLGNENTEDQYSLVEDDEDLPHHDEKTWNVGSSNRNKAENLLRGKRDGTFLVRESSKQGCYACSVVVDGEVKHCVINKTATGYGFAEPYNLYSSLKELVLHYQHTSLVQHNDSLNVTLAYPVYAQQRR
Experiment: PI3 Kinase TR-FRET assay, PI3Kα (wild-type)

{"columns": ["compound", "value_observed"],
 "data": [
  ["CN1CCN(C(=O)c2ccc(NC(=O)Nc3ccc(-c4nc(N5CCOCC5)c5ccc(-c6cccnc6F)cc5n4)cc3)cc2)CC1", "< 50 nM"]
]}

Report IC50 for CN(C)C(=O)c1ccc(NC(=O)Nc2ccc(-c3nc(N4CCOCC4)c4ncc(-c5cncnc5)cc4n3)cc2)cc1 tested on PI3Kα (wild-type), P110/P85α (Homo sapiens, UniProt P42336). < 50 nM

----------
Tested on: PC3 cells
Assay: XTT assay for cell viability, PC3 cells
Assay type: cell-based, human
Details: Homo sapiens, PC-3, cell viability
pIC50: −log10 of the molar value.
value_kind: pIC50

Completed entries (count: 3):
{"columns": ["molecule", "value_observed"],
 "data": [
  ["CN(C)C(=O)c1ccc(NC(=O)Nc2ccc(-c3nc(N4CCOCC4)c4ccc(-c5cncnc5)cc4n3)cc2)cc1F [Example 240]", "5.00 to 6.70"],
  ["COc1ncc(-c2ccc3c(N4CCOCC4)nc(-c4ccc(NC(=O)Nc5ccc(C(=O)N(C)C)cc5)cc4F)nc3c2)cn1 [Example 242]", "5.00 to 6.70"],
  ["Cc1ccc(-c2ccc3c(N4CCOCC4)nc(-c4ccc(NC(=O)Nc5ccc(C(=O)N6CCC(N(C)C)CC6)cc5)cc4)nc3c2)o1 [Example 191]", "5.00 to 6.70"]
]}

For the molecule shown here, Cc1noc(C)c1-c1ccc2c(N3CCOCC3)nc(-c3ccc(NC(=O)Nc4ccc(C(=O)N(C)C)cc4)c(F)c3)nc2c1 [Example 131] , give the reported pIC50. 5.00 to 6.70

Now the same for CN(C)C(=O)c1ccc(NC(=O)Nc2ccc(-c3nc(N4CCOCC4)c4ccc(-c5ccncc5F)cc4n3)cc2)cc1 [Example 65] 6.30 to 7.00

Now try CN(C)C(=O)c1ccc(NC(=O)Nc2ccc(-c3nc(N4CCOCC4)c4cc(F)c(-c5cncnc5)cc4n3)cc2)cc1 [Example 30] . > 7.00

CN(C)C(=O)c1ccc(NC(=O)Nc2ccc(-c3nc(N4CCOCC4)c4cccc(-c5cccc(O)c5)c4n3)cc2)cc1 [Example 5] ? > 7.00

Same again, this time with CN(C)C(=O)c1ccc(NC(=O)Nc2ccc(-c3nc(N4CCOCC4)c4ccc(-c5cnn(C)c5)cc4n3)cn2)cc1 [Example 55] 6.30 to 7.00

Try CN1CCN(C(=O)c2ccc(NC(=O)Nc3ccc(-c4nc(N5CCOCC5)c5ccc(-c6cccc(S(C)(=O)=O)c6)cc5n4)cc3)cc2)CC1 [Example 32] next. 5.30 to 6.30

Also CC(=O)Nc1ccc(NC(=O)Nc2ccc(-c3nc(N4CCOCC4)c4ccc(-c5ccc(C)o5)cc4n3)cc2)cc1 [Example 17] ? 6.30 to 7.00

Try this molecule too: CN(C)C(=O)c1ccc(NC(=O)Nc2ccc(-c3nc(N4CCOCC4)c4cc(F)c(-c5cncnc5)cc4n3)c(F)c2)cc1 [Example 256] 5.00 to 6.70

What about this molecule? CN(C)C(=O)c1ccc(NC(=O)Nc2ccc(-c3nc(N4CCOCC4)c4ccc(-c5cccc(NS(C)(=O)=O)c5)cc4n3)cc2)cc1 [Example 23] 5.30 to 6.30
